# maps each entry to its pIC50
# TARGET_OR_SYSTEM: PLpro of SARS-CoV-2 (Severe acute respiratory syndrome coronavirus 2)
pIC50: −log10 of the molar value.

COMPOUND: COc1ccc(-c2nc3cnccn3c2Nc2ccc(C(=O)NC3CCCCC3)cc2)cc1 [P22414]
TARGET_OR_SYSTEM: PLpro of SARS-CoV-2 (Severe acute respiratory syndrome coronavirus 2)
pIC50: 4.34

COMPOUND: COc1cc(-c2nc3cnccn3c2Nc2ccc(C(=O)O)cc2)ccc1O [P19455]
TARGET_OR_SYSTEM: PLpro of SARS-CoV-2 (Severe acute respiratory syndrome coronavirus 2)
pIC50: 4.58

COMPOUND: COc1ccc(-c2nc3cnccn3c2Nc2ccc(C(N)=O)cc2)cc1 [P19442]
TARGET_OR_SYSTEM: PLpro of SARS-CoV-2 (Severe acute respiratory syndrome coronavirus 2)
pIC50: 4.36

COMPOUND: CCNC(=O)c1ccc(Nc2c(-c3ccc(OC)cc3)nc3cnccn23)cc1 [P22471]
TARGET_OR_SYSTEM: PLpro of SARS-CoV-2 (Severe acute respiratory syndrome coronavirus 2)
pIC50: 4.45

COMPOUND: COc1ccc(-c2nc3cnccn3c2Nc2ccc(C(=O)NCc3ccco3)cc2)cc1 [P22445]
TARGET_OR_SYSTEM: PLpro of SARS-CoV-2 (Severe acute respiratory syndrome coronavirus 2)
pIC50: 4.86

COMPOUND: CSc1ccc(-c2nc3cnccn3c2Nc2cccc(C(=O)NCc3ccco3)c2)cc1 [P22479]
TARGET_OR_SYSTEM: PLpro of SARS-CoV-2 (Severe acute respiratory syndrome coronavirus 2)
pIC50: 4.45

COMPOUND: Cc1ccc(-c2nc3cnccn3c2Nc2ccc(C(=O)N3CCOCC3)cc2)cc1 [P22415]
TARGET_OR_SYSTEM: PLpro of SARS-CoV-2 (Severe acute respiratory syndrome coronavirus 2)
pIC50: 4.30

COMPOUND: CSc1ccc(-c2nc3cnccn3c2Nc2ccc(C(N)=O)cc2)cc1 [P19462]
TARGET_OR_SYSTEM: PLpro of SARS-CoV-2 (Severe acute respiratory syndrome coronavirus 2)
pIC50: 4.59

COMPOUND: O=C(O)c1ccc(Nc2c(-c3ccc(Cl)cc3)nc3cnccn23)cc1 [P18224]
TARGET_OR_SYSTEM: PLpro of SARS-CoV-2 (Severe acute respiratory syndrome coronavirus 2)
pIC50: 4.42

COMPOUND: COC(=O)c1cccc(Nc2c(-c3ccc(N4CCOCC4)cc3)nc3cnccn23)c1 [P141]
TARGET_OR_SYSTEM: PLpro of SARS-CoV-2 (Severe acute respiratory syndrome coronavirus 2)
pIC50: 4.42

COMPOUND: COc1ccc(Nc2c(-c3ccc(OC)c(OC)c3)nc3cnccn23)cc1OC [P19453]
TARGET_OR_SYSTEM: PLpro of SARS-CoV-2 (Severe acute respiratory syndrome coronavirus 2)
pIC50: 5.19

COMPOUND: Cc1ccc(-c2nc3cnccn3c2Nc2ccc(C(=O)NCCN3CCOCC3)cc2)cc1 [P22423]
TARGET_OR_SYSTEM: PLpro of SARS-CoV-2 (Severe acute respiratory syndrome coronavirus 2)
pIC50: 4.47

COMPOUND: CNC(=O)c1cccc(Nc2c(-c3ccc(N(C)C)cc3)nc3cnccn23)c1 [P19443]
TARGET_OR_SYSTEM: PLpro of SARS-CoV-2 (Severe acute respiratory syndrome coronavirus 2)
pIC50: 4.51

COMPOUND: CSc1ccc(-c2nc3cnccn3c2Nc2ccc(C(=O)O)cc2)cc1 [P19445]
TARGET_OR_SYSTEM: PLpro of SARS-CoV-2 (Severe acute respiratory syndrome coronavirus 2)
pIC50: 4.32

COMPOUND: COc1ccc(-c2nc3cnccn3c2Nc2ccc(C(N)=O)cc2)cc1OC [P19454]
TARGET_OR_SYSTEM: PLpro of SARS-CoV-2 (Severe acute respiratory syndrome coronavirus 2)
pIC50: 4.43

COMPOUND: COC(=O)c1cccc(Nc2c(-c3ccc(N(C)C)cc3)nc3cnccn23)c1 [P19446]
TARGET_OR_SYSTEM: PLpro of SARS-CoV-2 (Severe acute respiratory syndrome coronavirus 2)
pIC50: 4.52

COMPOUND: O=C(NC1CCCCC1)c1cccc(Nc2c(-c3ccc(Cl)cc3)nc3cnccn23)c1 [P22438]
TARGET_OR_SYSTEM: PLpro of SARS-CoV-2 (Severe acute respiratory syndrome coronavirus 2)
pIC50: 4.39

COMPOUND: COc1ccc(-c2nc3cnccn3c2Nc2cccc(C(N)=O)c2)cc1 [P22475]
TARGET_OR_SYSTEM: PLpro of SARS-CoV-2 (Severe acute respiratory syndrome coronavirus 2)
pIC50: 4.78

COMPOUND: Cc1ccc(-c2nc3cnccn3c2Nc2ccc(C(N)=O)cc2)cc1 [P19452]
TARGET_OR_SYSTEM: PLpro of SARS-CoV-2 (Severe acute respiratory syndrome coronavirus 2)
pIC50: 4.55

COMPOUND: COC(=O)c1cccc(Nc2c(-c3cccc(Cl)c3)nc3cnccn23)c1 [P19456]
TARGET_OR_SYSTEM: PLpro of SARS-CoV-2 (Severe acute respiratory syndrome coronavirus 2)
pIC50: 4.22

====

# TARGET_OR_SYSTEM: PLpro of SARS-CoV-2 (Severe acute respiratory syndrome coronavirus 2)
# TEST_SUMMARY: Enzyme activity test in vitro: inhibition of PLpro at fixed concentration 50 μM (RLRGG-AMC substrate)
# Format: biochemical
# STATED_CONDITIONS: read-out: Inhibition rate at 50 μM (%)
# maps each entry to its inhibition at 50 µM

GIVEN_SMILES: Cc1ccc(-c2nc3cnccn3c2Nc2ccc(C(=O)O)cc2)cc1
inhibition at 50 µM / %: 15.9

GIVEN_SMILES: CCc1cccc(C)c1Nc1c(-c2ccc(C(=O)OC)cc2)nc2cnccn12
inhibition at 50 µM / %: 20.3

GIVEN_SMILES: Cc1ccc(-c2nc3cnccn3c2Nc2ccc(C(=O)NCc3ccco3)cc2)cc1
inhibition at 50 µM / %: 40.1

GIVEN_SMILES: CCOC(=O)c1ccc(Nc2c(-c3ccc(N(C)C)cc3)nc3cnccn23)cc1
inhibition at 50 µM / %: 14.4

GIVEN_SMILES: COC(=O)c1ccc(-c2nc3cnccn3c2NC2CCCCC2)cc1
inhibition at 50 µM / %: 37.1

GIVEN_SMILES: O=C(O)c1ccc(Nc2c(-c3ccc(N4CCOCC4)cc3)nc3cnccn23)cc1
inhibition at 50 µM / %: 31.9

GIVEN_SMILES: COc1ccc(-c2nc3cnccn3c2Nc2ccc(C(=O)NC(C)C)cc2)cc1OC
inhibition at 50 µM / %: 43.9

GIVEN_SMILES: Fc1ccc(-c2nc3cnccn3c2Nc2ccc(Cl)cc2)cc1
inhibition at 50 µM / %: 3.18

GIVEN_SMILES: CN(C)c1ccc(-c2nc3cnccn3c2Nc2ccc(C(=O)O)cc2)cc1
inhibition at 50 µM / %: 35.1

====

# TARGET_OR_SYSTEM: PLpro of SARS-CoV-2 (Severe acute respiratory syndrome coronavirus 2, UniProt P0DTD1)
# TEST_SUMMARY: Enzyme activity test in vitro: inhibition of PLpro at fixed concentration 50 μM (RLRGG-AMC substrate)
# Type: biochemical
# STATED_CONDITIONS: read-out: Inhibition rate at 50 μM (%)
EXPERIMENTAL_READOUT: inhibition at 50 µM (%)

MOLECULE: COC(=O)c1cccc(Nc2c(-c3ccccc3)nc3cnccn23)c1 [P19476]
EXPERIMENTAL_VALUE: 34
--
MOLECULE: O=C(c1cccc(Nc2c(-c3ccccc3)nc3cnccn23)c1)N1CCCCC1 [P22458]
EXPERIMENTAL_VALUE: 35.5
--
MOLECULE: COc1ccc(-c2nc3cnccn3c2Nc2ccc(C(=O)NC(C)C)cc2)cc1 [P22432]
EXPERIMENTAL_VALUE: 42.2

====

# TARGET_OR_SYSTEM: PLpro of SARS-CoV-2 (Severe acute respiratory syndrome coronavirus 2)
# TEST_SUMMARY: Enzyme activity test in vitro: inhibition of PLpro at fixed concentration 50 μM (RLRGG-AMC substrate)
# Assay type: biochemical
# STATED_CONDITIONS: compound 50 μM, 10 min preincubation at 37° C., Table 1; read-out: Inhibition rate at 50 μM (%)
# maps each entry to its inhibition at 50 µM
EXPERIMENTAL_READOUT: inhibition at 50 µM

GIVEN_SMILES: CSc1ccc(-c2nc3cnccn3c2Nc2ccc(C(=O)O)cc2)cc1
EXPERIMENTAL_VALUE: 50.2%
//
GIVEN_SMILES: COc1cc(-c2nc3cnccn3c2Nc2ccc(C(=O)O)cc2)ccc1O
EXPERIMENTAL_VALUE: 53.1%
//
GIVEN_SMILES: Cc1ccc(-c2nc3cnccn3c2Nc2ccc(C(=O)NCCN3CCOCC3)cc2)cc1
EXPERIMENTAL_VALUE: 54.5%
//
GIVEN_SMILES: COc1ccc(-c2nc3cnccn3c2Nc2ccc(C(=O)NCc3ccco3)cc2)cc1
EXPERIMENTAL_VALUE: 62.3%
//
GIVEN_SMILES: Cc1ccc(-c2nc3cnccn3c2Nc2ccc(C(N)=O)cc2)cc1
EXPERIMENTAL_VALUE: 53.1%
//
GIVEN_SMILES: CSc1ccc(-c2nc3cnccn3c2Nc2cccc(C(=O)NCc3ccco3)c2)cc1
EXPERIMENTAL_VALUE: 58.8%
//
GIVEN_SMILES: COc1ccc(-c2nc3cnccn3c2Nc2ccc(C(=O)NC3CCCCC3)cc2)cc1
EXPERIMENTAL_VALUE: 51.1%
//
GIVEN_SMILES: CNC(=O)c1cccc(Nc2c(-c3ccc(N(C)C)cc3)nc3cnccn23)c1
EXPERIMENTAL_VALUE: 53%
